Reference source for all entries: patent EP0486958A1

method: Acute toxicity (LD₅₀)
Assay type: in vivo, Suiss female rats
applied conditions: female, Suiss, rat, in vivo, intravenous, endovenous, tartrates dissolved in water; read-out: LD₅₀ endovenous
assay readout: LD50 (mg/kg)

{"compound": "CNC(=O)Oc1ccc2c(c1)[C@]1(C)CCN(C)[C@@H]1N2C [Physostigmine]", "assay readout": "LD50", "result": 0.58}

###

The reader will find pIC50 measurements below, all made with Electric Eel acetylcholinesterase, type V.S. (Electrophorus electricus).
Sequence (O42275 24-633): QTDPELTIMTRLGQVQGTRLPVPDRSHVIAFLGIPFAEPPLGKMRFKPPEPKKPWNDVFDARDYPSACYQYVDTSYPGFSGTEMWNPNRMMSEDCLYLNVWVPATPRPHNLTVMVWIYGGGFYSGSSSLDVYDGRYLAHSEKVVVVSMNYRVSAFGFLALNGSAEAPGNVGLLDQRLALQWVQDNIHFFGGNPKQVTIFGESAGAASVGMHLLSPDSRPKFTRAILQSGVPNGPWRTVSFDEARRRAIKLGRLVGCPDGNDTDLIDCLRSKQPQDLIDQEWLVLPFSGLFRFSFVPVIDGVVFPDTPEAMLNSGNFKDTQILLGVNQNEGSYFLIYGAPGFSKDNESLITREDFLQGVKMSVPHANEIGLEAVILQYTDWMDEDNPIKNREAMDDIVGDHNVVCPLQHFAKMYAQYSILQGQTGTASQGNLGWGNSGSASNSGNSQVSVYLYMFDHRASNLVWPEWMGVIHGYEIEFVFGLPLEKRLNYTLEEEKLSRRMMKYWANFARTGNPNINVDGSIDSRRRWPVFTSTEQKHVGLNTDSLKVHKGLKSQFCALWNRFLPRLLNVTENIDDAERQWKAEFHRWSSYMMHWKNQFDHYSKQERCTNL
pIC50: −log10 of the molar value.

{"molecule": "CCCCCN(C)C(=O)Oc1ccc2c(c1)[C@]1(C)CCN(C)[C@@H]1N2C", "pIC50": 5.72}
{"molecule": "CCCCCCCN(C)C(=O)Oc1ccc2c(c1)[C@]1(C)CCN(C)[C@@H]1N2C", "pIC50": 5.46}
{"molecule": "CN(Cc1ccccc1)C(=O)Oc1ccc2c(c1)[C@]1(C)CCN(C)[C@@H]1N2C", "pIC50": 6.00}
{"molecule": "CCCN(C)C(=O)Oc1ccc2c(c1)[C@]1(C)CCN(C)[C@@H]1N2C (relative stereo)", "pIC50": 5.96}

###

method: Acute toxicity (LD₅₀)
Assay type: in vivo, Suiss female rats
applied conditions: female, Suiss, rat, in vivo, po, oral (per os), tartrates dissolved in water; read-out: LD₅₀ oral
assay readout: LD50 (mg/kg)

{"query smiles": "CNC(=O)Oc1ccc2c(c1)[C@]1(C)CCN(C)[C@@H]1N2C", "assay readout": "LD50", "unit abbrev": "mg/kg", "result": 2.2}

###

method: Acute toxicity (LD₅₀)
Assay type: in vivo, Suiss female rats
applied conditions: rat, water, iv, endovenous, tartrates dissolved in water; read-out: LD₅₀ endovenous
Consider the following molecules and their measured LD50 readings.

{"query smiles": "CCCCCCCN(C)C(=O)Oc1ccc2c(c1)[C@]1(C)CCN(C)[C@@H]1N2C", "LD50": "> 50 mg/kg"}
{"query smiles": "CCCCCN(C)C(=O)Oc1ccc2c(c1)[C@]1(C)CCN(C)[C@@H]1N2C", "LD50": "> 50 mg/kg"}
{"query smiles": "CN(Cc1ccccc1)C(=O)Oc1ccc2c(c1)[C@]1(C)CCN(C)[C@@H]1N2C", "LD50": "< 50 mg/kg"}
